read-out: E-selectin (Homo sapiens) (UniProt P16581); assay: BSK_3C_Eselectin: BioMAP Diversity Plus: 3C Assay for Eselectin Biomarker Activity (AID 2283015); conditions: primary human endothelial cells (HUVEC); actives raise or lower the signal
Sequence (P16581 whole entry, looked up): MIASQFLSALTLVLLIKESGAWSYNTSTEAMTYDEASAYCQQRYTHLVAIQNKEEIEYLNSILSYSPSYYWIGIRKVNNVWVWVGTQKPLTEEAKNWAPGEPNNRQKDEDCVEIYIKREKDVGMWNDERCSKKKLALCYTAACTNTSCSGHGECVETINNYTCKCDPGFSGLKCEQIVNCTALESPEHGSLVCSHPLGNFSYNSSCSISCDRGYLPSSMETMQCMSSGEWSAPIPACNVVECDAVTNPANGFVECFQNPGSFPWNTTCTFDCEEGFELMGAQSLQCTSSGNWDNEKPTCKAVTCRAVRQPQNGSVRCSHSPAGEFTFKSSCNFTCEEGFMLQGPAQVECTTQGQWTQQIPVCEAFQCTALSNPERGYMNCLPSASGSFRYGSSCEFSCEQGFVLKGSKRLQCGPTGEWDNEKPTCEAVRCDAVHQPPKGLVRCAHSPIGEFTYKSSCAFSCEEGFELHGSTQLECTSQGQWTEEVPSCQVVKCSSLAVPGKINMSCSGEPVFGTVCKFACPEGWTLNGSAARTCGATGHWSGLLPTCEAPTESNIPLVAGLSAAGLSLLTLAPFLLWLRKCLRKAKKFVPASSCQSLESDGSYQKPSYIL
Calls of active or inactive are those of the source. How the source made its calls: active means hit-call score of the fitted dose curve at least 0.9, where 1 is the maximum; inactive means score below 0.9.
Thanks in advance; please answer with one of these: 1 for active, -1 for inactive

Req: Status in this test for CCCCOC(=O)c1ccccc1C(=O)OCc1ccccc1 ?
Resp: -1

Req: Which result was noted for this compound in the test: Nc1ccc(Oc2ccc(N)cc2)cc1
Resp: -1

Req: Given CCC12COCN1COC2 , state the outcome it received in this test.
Resp: -1

Req: For Cn1cc(-c2ccccc2)c(=O)c(-c2cccc(C(F)(F)F)c2)c1 , which call appears in the assay record?
Resp: -1

Req: Assay result, entry CN(C)C(=O)Nc1ccc(Cl)cc1 — outcome?
Resp: -1

Req: Name the outcome recorded for O=[N+]([O-])C(Br)(CO)CO in the assay.
Resp: 1

Req: Can you look up the reported call for Nc1ccc(Cl)cc1N for me?
Resp: 1

Req: Test call for this compound, please: C1=Cc2cccc3cccc1c23
Resp: -1

Req: Call for entry Clc1ccc(C(c2ccc(Cl)cc2)C(Cl)(Cl)Cl)cc1 :
Resp: 1

Req: # lookup: test call for CCN(CC)N=O
Resp: -1

Req: Look up the recorded call for Nc1cc(Cl)cc(C(=O)O)c1Cl in this test.
Resp: -1

Req: # fetch the recorded call for CN(C)[C@@H]1C(=O)C(C(N)=O)=C(O)[C@@]2(O)C(=O)C3=C(O)c4c(O)cccc4[C@@](C)(O)[C@H]3C[C@@H]12 here
Resp: -1

Req: Dear colleague, could you share the recorded outcome for [Cl-].[Cl-].[Hg+2] when you have a moment?
Resp: 1

Req: State the result this test recorded for Cc1ccc(N=C=O)cc1N=C=O .
Resp: -1

---

target: rat Opioid Receptor, Non-selective Sodium (Na+) Binding, Oprm1 (gene 25601) (UniProt P33535); test: NVS_GPCR_rOpiate_NonSelectiveNa: NovaScreen (NVS) G Protein-Coupled Receptor Assay for rat Opioid Receptor, Non-selective Sodium (Na+) Binding (AID 2283311)
Sequence (P33535 whole entry, looked up): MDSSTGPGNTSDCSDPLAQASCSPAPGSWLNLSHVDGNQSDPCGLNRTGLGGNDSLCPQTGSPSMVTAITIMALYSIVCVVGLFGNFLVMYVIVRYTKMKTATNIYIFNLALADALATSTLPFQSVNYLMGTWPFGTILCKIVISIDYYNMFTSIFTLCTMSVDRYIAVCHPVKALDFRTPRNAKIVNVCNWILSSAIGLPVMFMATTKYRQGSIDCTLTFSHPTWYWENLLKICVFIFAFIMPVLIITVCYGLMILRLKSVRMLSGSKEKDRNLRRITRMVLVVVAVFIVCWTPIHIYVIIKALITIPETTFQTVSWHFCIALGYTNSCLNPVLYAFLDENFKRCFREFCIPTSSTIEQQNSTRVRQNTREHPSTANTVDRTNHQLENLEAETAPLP
Records with an inconclusive call do not appear. Activity calls are given as the source filed them. Rule for the calls: active = hit-call score of the fitted dose curve at least 0.9, where 1 is the maximum; inconclusive = response in the unintended direction; inactive = score below 0.9.
Kindly state AC50 for each of the entries shown.

Req: What value of AC50 has been recorded for this entry: [Cl-].[Cl-].[Hg+2]
Resp: 16.7 µM (active)

Req: Can you share its AC50? I mean this compound: CCCCCCCCn1sccc1=O
Resp: 32.5 µM (active)

Req: Looking for the measured AC50 of CCC[CH2][Sn]([Cl])([CH2]CCC)[CH2]CCC , can you help?
Resp: 8.92 µM (active)

Req: # lookup: AC50 of CCOC(=O)[C@]1(c2ccccc2)Oc2ccccc2[C@@H]1N
Resp: 21.3 µM (active)

---

read-out: Potassium channel subfamily K member 1 (KCNK1), KCNK1 (gene 3775); assay: LTEA_HepaRG_KCNK1: Life Technologies and Expression Analysis (LTEA) Assay for Potassium channel subfamily K member 1 (KCNK1) using HepaRG (AID 2283511); details: mRNA level, 48 h; actives raise or lower the signal
Activity calls are given as the source filed them. How the source made its calls: active means hit-call score of the fitted dose curve at least 0.9, where 1 is the maximum; inactive means score below 0.9.
Reported Property: outcome

As a guide, the following entries are already answered.
CCCCCCCCn1sccc1=O = inactive
COP(=S)(OC)SCN1C(=O)c2ccccc2C1=O = inactive
CN(C)c1ccccc1 = inactive
CCCCOC(=O)c1ccccc1C(=O)OCc1ccccc1 = inactive

Req: outcome lookup needed for Clc1ccc(Cl)c(Cl)c1 , thanks.
Resp: inactive

Req: Reported outcome, compound CC(C)COC(=O)c1ccccc1C(=O)OCC(C)C : ____
Resp: inactive

Req: // query outcome value for entry CNC(=O)Oc1cccc2c1OC(C)(C)C2
Resp: inactive

Req: # input compound: C[C@]12C=CC3=C4CCC(=O)C=C4CC[C@H]3[C@@H]1CC[C@@H]2O ; wanted: its outcome
Resp: inactive

Req: Any idea what its outcome is? The compound is OCCCl
Resp: inactive

Req: # input compound: COC(=O)Nc1nc2ccccc2[nH]1 ; wanted: its outcome
Resp: inactive

Req: Can you share its outcome? I mean this compound: CO[C@@H]1[C@H](OC(=O)NC(=O)CCl)CC[C@]2(CO2)[C@H]1[C@@]1(C)O[C@@H]1CC=C(C)C
Resp: inactive

Req: Bench note: what outcome did Nc1ccc(N=Nc2ccccc2)cc1 show?
Resp: inactive

Req: Find the recorded outcome belonging to Nc1ccc(Oc2ccc(N)cc2)cc1 and report it.
Resp: inactive

Req: // returns reported outcome for input O=C(Nc1ccccc1)c1ccccc1I
Resp: inactive

Req: Returns the measured outcome for the input compound. Input: Cn1cc(-c2ccccc2)c(=O)c(-c2cccc(C(F)(F)F)c2)c1
Resp: inactive

Req: Given CC(C)(C)C(O)(CCc1ccc(Cl)cc1)Cn1cncn1 (stereo not drawn) , state its recorded outcome.
Resp: inactive

These entries and their values trace back to PubChem BioAssay (EPA / NIEHS).
